Biological target: NAD-dependent protein deacetylase sirtuin-1 (Homo sapiens)
Sequence (Q96EB6 whole entry): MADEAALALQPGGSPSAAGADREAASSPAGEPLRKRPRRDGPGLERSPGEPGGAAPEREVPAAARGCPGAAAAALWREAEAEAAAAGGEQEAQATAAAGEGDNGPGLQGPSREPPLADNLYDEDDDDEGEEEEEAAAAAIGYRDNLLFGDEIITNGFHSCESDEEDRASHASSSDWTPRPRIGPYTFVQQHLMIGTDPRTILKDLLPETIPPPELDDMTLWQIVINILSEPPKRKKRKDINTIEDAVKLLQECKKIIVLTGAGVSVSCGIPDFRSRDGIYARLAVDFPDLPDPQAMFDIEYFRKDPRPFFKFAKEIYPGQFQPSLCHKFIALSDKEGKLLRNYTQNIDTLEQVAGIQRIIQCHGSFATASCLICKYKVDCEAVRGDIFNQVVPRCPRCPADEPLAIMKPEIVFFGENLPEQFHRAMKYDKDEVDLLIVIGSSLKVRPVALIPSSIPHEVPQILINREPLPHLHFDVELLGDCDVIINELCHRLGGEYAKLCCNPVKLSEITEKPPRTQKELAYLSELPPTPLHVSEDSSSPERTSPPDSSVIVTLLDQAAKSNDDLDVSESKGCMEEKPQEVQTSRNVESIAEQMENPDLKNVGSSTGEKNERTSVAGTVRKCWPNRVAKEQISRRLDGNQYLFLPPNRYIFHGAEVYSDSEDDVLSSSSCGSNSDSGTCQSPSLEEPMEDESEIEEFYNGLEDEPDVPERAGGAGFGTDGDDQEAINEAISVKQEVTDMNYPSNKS
Experiment: Inhibition of human recombinant GST-fused SIRT1 expressed in Escherichia coli DH5-alpha using [3H]acetic acid labeled MPSDKTIGG as substrate after overnight incubation by liquid scintillation counting method
Property measured: IC50 (µM)
Answers are plain numbers, in µM.

GET /values?readout=IC50&system=NAD-dependent protein deacetylase sirtuin-1 (Homo sapiens)&item= CC(C)=CCC/C(C)=C/C[C@@H]1C[C@]2(CC=C(C)C)C(=O)[C@@](CC=C(C)C)(C(=O)C(C(=O)c3ccc(O)c(O)c3)=C2O)[C@@]1(C)CCC=C(C)C
9
